# Test system: K-562
# protocol: NCI anticancer screening, Leukemia K-562
# Assay type: cell-based
# measurement_parameters: Homo sapiens, K562; K-562, 10 μM; read-out: % Growth Inhibition (GI %)
measured_parameter: inhibition at 10 µM (%)
Report as a plain number; the unit % is understood.

See these solved cases before continuing.
>>> endpoint_result("O=C(c1nc2ccccc2[nH]1)[C@H]1[C@H](c2ccco2)C2CSCN2[C@]12C(=O)Nc1ccccc12 (stereo partly shown)")
89.8
>>> endpoint_result("O=C(c1nc2ccccc2[nH]1)[C@H]1[C@H](c2ccc(F)cc2)C2CSCN2[C@]12C(=O)Nc1ccccc12 (stereo partly shown)")
87.4
>>> endpoint_result("O=C(c1nc2ccccc2[nH]1)[C@H]1[C@H](c2cccc(F)c2)C2CSCN2[C@]12C(=O)Nc1ccccc12 (stereo partly shown)")
84.4

Here is another molecule to look at.
Ask: Returns the measured inhibition at 10 µM for the input molecule. Input: O=C(c1nc2ccccc2[nH]1)[C@H]1[C@H](c2cccc(O)c2)C2CSCN2[C@]12C(=O)Nc1ccccc12 (stereo partly shown)
Result: 92.5

----------
# System: NCI-H226
# protocol: NCI anticancer screening, Non-Small Cell Lung Cancer NCI-H226
# Type: cell-based
# measurement_parameters: Homo sapiens; NCI-H226, 10 μM; read-out: % Growth Inhibition (GI %)
measured_parameter: inhibition at 10 µM (%)
Dear colleague, please return just the value in %, with no unit written.

As a guide, the following entries are already answered.
>>> endpoint_result("O=C(c1nc2ccccc2[nH]1)[C@H]1[C@H](c2ccc(Cl)cc2)C2CSCN2[C@]12C(=O)Nc1ccccc12 (stereo partly shown)")
74
>>> endpoint_result("O=C(c1nc2ccccc2[nH]1)[C@H]1[C@H](c2ccco2)C2CSCN2[C@]12C(=O)Nc1ccccc12 (stereo partly shown)")
92.2
>>> endpoint_result("O=C(c1nc2ccccc2[nH]1)[C@H]1[C@H](c2cccc(F)c2)C2CSCN2[C@]12C(=O)Nc1ccccc12 (stereo partly shown)")
92.6

Ask: Notebook: pull reported inhibition at 10 µM for NCI-H226, entry O=C(c1nc2ccccc2[nH]1)[C@H]1[C@H](c2ccc(C(F)(F)F)cc2)C2CSCN2[C@]12C(=O)Nc1ccccc12 (stereo partly shown)
Result: 79

----------
Reported inhibition at 10 µM values for the following compounds.
# Test system: CAKI-1
# protocol: NCI anticancer screening, Renal Cancer CAKI-1
# Format: cell-based
# measurement_parameters: Homo sapiens; CAKI-1, 10 μM; read-out: % Growth Inhibition (GI %)
State just the number; it will be interpreted in %.

Past entries and their recorded results:
>>> endpoint_result("O=C(c1nc2ccccc2[nH]1)[C@H]1[C@H](c2cccc(O)c2)C2CSCN2[C@]12C(=O)Nc1ccccc12 (stereo partly shown)")
84.1
>>> endpoint_result("O=C(c1nc2ccccc2[nH]1)[C@H]1[C@H](c2ccc(Cl)cc2)C2CSCN2[C@]12C(=O)Nc1ccccc12 (stereo partly shown)")
68.3
>>> endpoint_result("COc1cc([C@@H]2C3CSCN3[C@]3(C(=O)Nc4ccccc43)[C@H]2C(=O)c2nc3ccccc3[nH]2)cc(OC)c1OC (stereo partly shown)")
92.6
>>> endpoint_result("O=C(c1nc2ccccc2[nH]1)[C@H]1[C@H](c2ccccc2O)C2CSCN2[C@]12C(=O)Nc1ccccc12 (stereo partly shown)")
84

Ask: Which inhibition at 10 µM value belongs to O=C(c1nc2ccccc2[nH]1)[C@H]1[C@H](c2ccccc2)C2CSCN2[C@]12C(=O)Nc1ccccc12 (mixture of isomers) ?
Result: 86

Ask: Also check O=C(c1nc2ccccc2[nH]1)[C@H]1[C@H](c2ccc(C(F)(F)F)cc2)C2CSCN2[C@]12C(=O)Nc1ccccc12 (stereo partly shown)
Result: 78.6

Ask: O=C(c1nc2ccccc2[nH]1)[C@H]1[C@H](c2ccc(Br)cc2)C2CSCN2[C@]12C(=O)Nc1ccccc12 (stereo partly shown) , same question.
Result: 60.3
